particulars: in n-heptanol, 298.15 K
measure-name: solubility (mole fraction)
Lab note: jot the number down without any unit.

CC(=O)Nc1ccccc1[N+](=O)[O-] yielded solubility (mole fraction) of 0.0129

---

particulars: in DMF, 278.15 K
measure-name: solubility (mole fraction)
Lab note: jot the number down without any unit.

CC(=O)Nc1ccccc1[N+](=O)[O-] yielded solubility (mole fraction) of 0.167

---

particulars: in ethanol, 308.15 K
measure-name: solubility (mole fraction)
Lab note: jot the number down without any unit.

CC(=O)Nc1ccccc1[N+](=O)[O-] yielded solubility (mole fraction) of 0.0382

---

particulars: in n-butanol, 298.15 K
measure-name: solubility (mole fraction)
Lab note: jot the number down without any unit.

CC(=O)Nc1ccccc1[N+](=O)[O-] yielded solubility (mole fraction) of 0.0196

---

particulars: in n-propanol, 313.15 K
measure-name: solubility (mole fraction)
Lab note: jot the number down without any unit.

CC(=O)Nc1ccccc1[N+](=O)[O-] yielded solubility (mole fraction) of 0.0393

---

particulars: in water, 293.15 K
measure-name: solubility (mole fraction)
Lab note: jot the number down without any unit.

CC(=O)Nc1ccccc1[N+](=O)[O-] yielded solubility (mole fraction) of 0.000201

---

particulars: in acetonitrile, 308.15 K
measure-name: solubility (mole fraction)
Lab note: jot the number down without any unit.

CC(=O)Nc1ccccc1[N+](=O)[O-] yielded solubility (mole fraction) of 0.0511

---

particulars: in isopropanol, 298.15 K
measure-name: solubility (mole fraction)

CC(=O)Nc1ccccc1[N+](=O)[O-] yielded solubility (mole fraction) of 0.0151

---

particulars: in 1,4-dioxane, 318.15 K
measure-name: solubility (mole fraction)
Lab note: jot the number down without any unit.

CC(=O)Nc1ccccc1[N+](=O)[O-] yielded solubility (mole fraction) of 0.284

---

particulars: in ethyl acetate, 318.15 K
measure-name: solubility (mole fraction)

CC(=O)Nc1ccccc1[N+](=O)[O-] yielded solubility (mole fraction) of 0.21

---

particulars: in acetonitrile, 323.15 K
measure-name: solubility (mole fraction)
Lab note: jot the number down without any unit.

CC(=O)Nc1ccccc1[N+](=O)[O-] yielded solubility (mole fraction) of 0.124

---

particulars: in NMP, 313.15 K
measure-name: solubility (mole fraction)
Lab note: jot the number down without any unit.

CC(=O)Nc1ccccc1[N+](=O)[O-] yielded solubility (mole fraction) of 0.404

---

particulars: in ethyl acetate, 308.15 K
measure-name: solubility (mole fraction)
Lab note: jot the number down without any unit.

CC(=O)Nc1ccccc1[N+](=O)[O-] yielded solubility (mole fraction) of 0.135

---

particulars: in NMP, 298.15 K
measure-name: solubility (mole fraction)
Lab note: jot the number down without any unit.

CC(=O)Nc1ccccc1[N+](=O)[O-] yielded solubility (mole fraction) of 0.299

---

particulars: in 1,4-dioxane, 303.15 K
measure-name: solubility (mole fraction)
Lab note: jot the number down without any unit.

CC(=O)Nc1ccccc1[N+](=O)[O-] yielded solubility (mole fraction) of 0.186

---

particulars: in methanol, 278.15 K
measure-name: solubility (mole fraction)
Lab note: jot the number down without any unit.

CC(=O)Nc1ccccc1[N+](=O)[O-] yielded solubility (mole fraction) of 0.0181

---

particulars: in isopropanol, 303.15 K
measure-name: solubility (mole fraction)

CC(=O)Nc1ccccc1[N+](=O)[O-] yielded solubility (mole fraction) of 0.0184

---

particulars: in n-butanol, 288.15 K
measure-name: solubility (mole fraction)
Lab note: jot the number down without any unit.

CC(=O)Nc1ccccc1[N+](=O)[O-] yielded solubility (mole fraction) of 0.0127

---

particulars: in methanol, 308.15 K
measure-name: solubility (mole fraction)
Lab note: jot the number down without any unit.

CC(=O)Nc1ccccc1[N+](=O)[O-] yielded solubility (mole fraction) of 0.0463

---

particulars: in n-heptanol, 288.15 K
measure-name: solubility (mole fraction)

CC(=O)Nc1ccccc1[N+](=O)[O-] yielded solubility (mole fraction) of 0.00829

---

particulars: in ethanol, 303.15 K
measure-name: solubility (mole fraction)

CC(=O)Nc1ccccc1[N+](=O)[O-] yielded solubility (mole fraction) of 0.0323

---

particulars: in ethylene glycol, 318.15 K
measure-name: solubility (mole fraction)
Lab note: jot the number down without any unit.

CC(=O)Nc1ccccc1[N+](=O)[O-] yielded solubility (mole fraction) of 0.0187

---

particulars: in n-heptanol, 313.15 K
measure-name: solubility (mole fraction)
Lab note: jot the number down without any unit.

CC(=O)Nc1ccccc1[N+](=O)[O-] yielded solubility (mole fraction) of 0.0261

---

particulars: in ethylene glycol, 303.15 K
measure-name: solubility (mole fraction)
Lab note: jot the number down without any unit.

CC(=O)Nc1ccccc1[N+](=O)[O-] yielded solubility (mole fraction) of 0.0103

---

particulars: in n-butanol, 313.15 K
measure-name: solubility (mole fraction)
Lab note: jot the number down without any unit.

CC(=O)Nc1ccccc1[N+](=O)[O-] yielded solubility (mole fraction) of 0.0341

---

particulars: in isobutanol, 288.15 K
measure-name: solubility (mole fraction)
Lab note: jot the number down without any unit.

CC(=O)Nc1ccccc1[N+](=O)[O-] yielded solubility (mole fraction) of 0.0115

---

particulars: in isobutanol, 313.15 K
measure-name: solubility (mole fraction)
Lab note: jot the number down without any unit.

CC(=O)Nc1ccccc1[N+](=O)[O-] yielded solubility (mole fraction) of 0.0302

---

particulars: in cyclohexane, 303.15 K
measure-name: solubility (mole fraction)
Lab note: jot the number down without any unit.

CC(=O)Nc1ccccc1[N+](=O)[O-] yielded solubility (mole fraction) of 0.00275

---

particulars: in water, 313.15 K
measure-name: solubility (mole fraction)
Lab note: jot the number down without any unit.

CC(=O)Nc1ccccc1[N+](=O)[O-] yielded solubility (mole fraction) of 0.000521

---

particulars: in 1,4-dioxane, 323.15 K
measure-name: solubility (mole fraction)
Lab note: jot the number down without any unit.

CC(=O)Nc1ccccc1[N+](=O)[O-] yielded solubility (mole fraction) of 0.343

---

particulars: in n-propanol, 283.15 K
measure-name: solubility (mole fraction)
Lab note: jot the number down without any unit.

CC(=O)Nc1ccccc1[N+](=O)[O-] yielded solubility (mole fraction) of 0.0144

---

particulars: in acetonitrile, 288.15 K
measure-name: solubility (mole fraction)
Lab note: jot the number down without any unit.

CC(=O)Nc1ccccc1[N+](=O)[O-] yielded solubility (mole fraction) of 0.021

---

particulars: in DMF, 318.15 K
measure-name: solubility (mole fraction)
Lab note: jot the number down without any unit.

CC(=O)Nc1ccccc1[N+](=O)[O-] yielded solubility (mole fraction) of 0.373

---

particulars: in ethanol, 288.15 K
measure-name: solubility (mole fraction)
Lab note: jot the number down without any unit.

CC(=O)Nc1ccccc1[N+](=O)[O-] yielded solubility (mole fraction) of 0.0188

---

particulars: in methanol, 293.15 K
measure-name: solubility (mole fraction)
Lab note: jot the number down without any unit.

CC(=O)Nc1ccccc1[N+](=O)[O-] yielded solubility (mole fraction) of 0.0289

---

particulars: in acetonitrile, 293.15 K
measure-name: solubility (mole fraction)
Lab note: jot the number down without any unit.

CC(=O)Nc1ccccc1[N+](=O)[O-] yielded solubility (mole fraction) of 0.0248

---

particulars: in n-heptanol, 323.15 K
measure-name: solubility (mole fraction)
Lab note: jot the number down without any unit.

CC(=O)Nc1ccccc1[N+](=O)[O-] yielded solubility (mole fraction) of 0.042

---

particulars: in NMP, 318.15 K
measure-name: solubility (mole fraction)
Lab note: jot the number down without any unit.

CC(=O)Nc1ccccc1[N+](=O)[O-] yielded solubility (mole fraction) of 0.445

---

particulars: in methanol, 298.15 K
measure-name: solubility (mole fraction)
Lab note: jot the number down without any unit.

CC(=O)Nc1ccccc1[N+](=O)[O-] yielded solubility (mole fraction) of 0.0331

---

particulars: in isobutanol, 308.15 K
measure-name: solubility (mole fraction)
Lab note: jot the number down without any unit.

CC(=O)Nc1ccccc1[N+](=O)[O-] yielded solubility (mole fraction) of 0.0246

---

particulars: in n-butanol, 318.15 K
measure-name: solubility (mole fraction)
Lab note: jot the number down without any unit.

CC(=O)Nc1ccccc1[N+](=O)[O-] yielded solubility (mole fraction) of 0.0422

---

particulars: in cyclohexane, 308.15 K
measure-name: solubility (mole fraction)
Lab note: jot the number down without any unit.

CC(=O)Nc1ccccc1[N+](=O)[O-] yielded solubility (mole fraction) of 0.00357

---

particulars: in n-propanol, 318.15 K
measure-name: solubility (mole fraction)
Lab note: jot the number down without any unit.

CC(=O)Nc1ccccc1[N+](=O)[O-] yielded solubility (mole fraction) of 0.0468

---

particulars: in cyclohexane, 313.15 K
measure-name: solubility (mole fraction)
Lab note: jot the number down without any unit.

CC(=O)Nc1ccccc1[N+](=O)[O-] yielded solubility (mole fraction) of 0.00474

---

particulars: in acetonitrile, 303.15 K
measure-name: solubility (mole fraction)

CC(=O)Nc1ccccc1[N+](=O)[O-] yielded solubility (mole fraction) of 0.0387
